Test: in vitro
Type: cell-based, human
Details: human; 300 µmol/L, about 24 hours, PMA-differentiated HL-60 cells, LDH activity; no-treatment group 0%, cell lysis buffer-treated group 100%; read-out: cytotoxicity (%) Evaluation compound results
metric-name: cytotoxicity at 24 h, 300 µM (%)
Answer with a number only, understood to be in %.

In the examples that follow, each entry is paired with its recorded cytotoxicity at 24 h, 300 µM.
• CCCCCC(=O)OCOP(=O)([O-])OC[N+]1(CCCCOc2ccc3ccc(=O)[nH]c3c2)CCN(c2cccc3sccc23)CC1 [EX 16] = 17
• CCCCCCCCCC(=O)OCOP(=O)([O-])OC[N+]1(CCCCOc2ccc3ccc(=O)[nH]c3c2)CCN(c2cccc3sccc23)CC1 [EX 17] = 8
• COCCOCCOP(=O)([O-])OC[N+]1(CCCCOc2ccc3ccc(=O)[nH]c3c2)CCN(c2cccc3sccc23)CC1 [EX 7] = -4

Please turn your attention to the following entry.
Request: Sample O=c1ccc2ccc(OCCCC[N+]3(COP(=O)([O-])OCCN4CCOCC4)CCN(c4cccc5sccc45)CC3)cc2[nH]1 [EX 14] — what was its cytotoxicity at 24 h, 300 µM?
Response: -10

====

Assay type: physicochemical
Details: Tris-hydrochloric acid buffer (pH 7.5) 50 mmol/L, magnesium chloride 5 mmol/L, evaluation compound 1 µmol/L, 37°C, 60 minutes, average of duplicate
metric-name: Concentration of evaluation compound decreased (nM)

Use these answered entries as a reference point.
- CCOCCC(=O)OCOP(=O)([O-])OC[N+]1(CCCCOc2ccc3ccc(=O)[nH]c3c2)CCN(c2cccc3sccc23)CC1: -10
- COCCN(CCOC)P(=O)([O-])OC[N+]1(CCCCOc2ccc3ccc(=O)[nH]c3c2)CCN(c2cccc3sccc23)CC1: -10
- O=c1ccc2ccc(OCCCC[N+]3(COP(=O)([O-])OCCCOc4ccccc4)CCN(c4cccc5sccc45)CC3)cc2[nH]1: 10
- O=c1ccc2ccc(OCCCC[N+]3(COP(=O)([O-])OCCOCCO)CCN(c4cccc5sccc45)CC3)cc2[nH]1: -10
- CC(C)OP(=O)([O-])OC[N+]1(CCCCOc2ccc3ccc(=O)[nH]c3c2)CCN(c2cccc3sccc23)CC1: 70

1: O=c1ccc2ccc(OCCCC[N+]3(COP(=O)([O-])OCCN4CCOCC4)CCN(c4cccc5sccc45)CC3)cc2[nH]1
2: COCCOCCOC(=O)OCOP(=O)([O-])OC[N+]1(CCCCOc2ccc3ccc(=O)[nH]c3c2)CCN(c2cccc3sccc23)CC1
Request: // which entry has the larger Concentration of evaluation compound decreased value, 1 or 2 ? Mark your answer with the label of the selected entry.
Response: 1

====

Type: physicochemical
Conditions: Tris-hydrochloric acid buffer (pH 7.5) 50 mmol/L, magnesium chloride 5 mmol/L, evaluation compound 1 µmol/L, 37°C, 60 minutes, average of duplicate
metric-name: Concentration of brexpiprazole formed (µM)

- O=c1ccc2ccc(OCCCC[N+]3(COP(=O)([O-])OC/C=C\CO)CCN(c4cccc5sccc45)CC3)cc2[nH]1: 0.00
- CC(C)COP(=O)([O-])OC[N+]1(CCCCOc2ccc3ccc(=O)[nH]c3c2)CCN(c2cccc3sccc23)CC1: 0.00
- CC(C)OC(=O)[C@H](C)NP(=O)([O-])OC[N+]1(CCCCOc2ccc3ccc(=O)[nH]c3c2)CCN(c2cccc3sccc23)CC1: 0.00
- C[C@H](NP(=O)([O-])OC[N+]1(CCCCOc2ccc3ccc(=O)[nH]c3c2)CCN(c2cccc3sccc23)CC1)C(N)=O: 0.00
- O=C(OCOP(=O)([O-])OC[N+]1(CCCCOc2ccc3ccc(=O)[nH]c3c2)CCN(c2cccc3sccc23)CC1)C1CCOCC1: 0.00

A: CC(O)CCOP(=O)([O-])OC[N+]1(CCCCOc2ccc3ccc(=O)[nH]c3c2)CCN(c2cccc3sccc23)CC1 (stereo not shown)
B: CCOC(=O)COP(=O)([O-])OC[N+]1(CCCCOc2ccc3ccc(=O)[nH]c3c2)CCN(c2cccc3sccc23)CC1
Request: Could you kindly indicate whether A or B has the higher Concentration of brexpiprazole formed value? Respond with the label that goes with your answer.
Response: B

====

Format: physicochemical
Settings: Tris-hydrochloric acid buffer (pH 7.5) 50 mmol/L, magnesium chloride 5 mmol/L, evaluation compound 1 µmol/L, 37°C, 60 minutes, average of duplicate
Procedure: The conversion from the evaluation compounds to brexpiprazole in a buffer (i.e., the stability of the evaluation compounds) was evaluated. The Example 1 compound was dissolved in acetonitrile/water (1:1, v/v) to 10 mmol/L and further diluted with acetonitrile/water (1:1, v/v) to 100 µmol/L for use. […]
metric-name: Concentration of evaluation compound decreased (nM)

# example entries with known answers
* CCCCOCCOCCOCCOC(=O)OCOP(=O)([O-])OC[N+]1(CCCCOc2ccc3ccc(=O)[nH]c3c2)CCN(c2cccc3sccc23)CC1 [EX 138] | 90
* CCOC(=O)CCCCCOC(=O)OCOP(=O)([O-])OC[N+]1(CCCCOc2ccc3ccc(=O)[nH]c3c2)CCN(c2cccc3sccc23)CC1 [EX 144] | 120
* CCOCCCOP(=O)([O-])OC[N+]1(CCCCOc2ccc3ccc(=O)[nH]c3c2)CCN(c2cccc3sccc23)CC1 [EX 97] | 90
* O=c1ccc2ccc(OCCCC[N+]3(COP(=O)([O-])OCCCCCCCO)CCN(c4cccc5sccc45)CC3)cc2[nH]1 [EX 45] | 70

P: CCCCCCCCCC(=O)OCOP(=O)([O-])OC[N+]1(CCCCOc2ccc3ccc(=O)[nH]c3c2)CCN(c2cccc3sccc23)CC1 [EX 17]
Q: CC(C)OCCOC(=O)OCOP(=O)([O-])OC[N+]1(CCCCOc2ccc3ccc(=O)[nH]c3c2)CCN(c2cccc3sccc23)CC1 [EX 133]
R: CC(C)COP(=O)([O-])OC[N+]1(CCCCOc2ccc3ccc(=O)[nH]c3c2)CCN(c2cccc3sccc23)CC1 [EX 90]
Request: # desc sort on Concentration of evaluation compound decreased across 3 compounds Put the labels in the requested order and list them out.
Response: Q, P, R

====

Assay type: physicochemical
Settings: Tris-hydrochloric acid buffer (pH 7.5) 50 mmol/L, magnesium chloride 5 mmol/L, evaluation compound 1 µmol/L, 37°C, 60 minutes, average of duplicate
metric-name: Concentration of evaluation compound decreased (nM)

A: COCCCCOP(=O)([O-])OC[N+]1(CCCCOc2ccc3ccc(=O)[nH]c3c2)CCN(c2cccc3sccc23)CC1
B: CCCOP(=O)([O-])OC[N+]1(CCCCOc2ccc3ccc(=O)[nH]c3c2)CCN(c2cccc3sccc23)CC1
C: CCOC(=O)CCOC(=O)OCOP(=O)([O-])OC[N+]1(CCCCOc2ccc3ccc(=O)[nH]c3c2)CCN(c2cccc3sccc23)CC1
Request: Please list these molecules in decreasing order of Concentration of evaluation compound decreased. A ranking is expressed here by listing the labels in the requested order.
Response: C, A, B
(C: 50 nM, A: 10 nM, B: -10 nM)

====

Format: physicochemical
Conditions: Tris-hydrochloric acid buffer (pH 7.5) 50 mmol/L, magnesium chloride 5 mmol/L, evaluation compound 1 µmol/L, 37°C, 60 minutes, average of duplicate
metric-name: Concentration of evaluation compound decreased (nM)

Study these solved cases before continuing.
* CC(C)(C)C(=O)OCCCCCCOP(=O)([O-])OC[N+]1(CCCCOc2ccc3ccc(=O)[nH]c3c2)CCN(c2cccc3sccc23)CC1 | 70
* COCCOC(=O)OCOP(=O)([O-])OC[N+]1(CCCCOc2ccc3ccc(=O)[nH]c3c2)CCN(c2cccc3sccc23)CC1 | 0
* CC(C)OC(=O)[C@H](C)NP(=O)([O-])OC[N+]1(CCCCOc2ccc3ccc(=O)[nH]c3c2)CCN(c2cccc3sccc23)CC1 | 60
* CCOC(=O)CC(C)(C)CC(=O)OCOP(=O)([O-])OC[N+]1(CCCCOc2ccc3ccc(=O)[nH]c3c2)CCN(c2cccc3sccc23)CC1 | 10
* Cc1cccc(C(=O)OCCCCCCOP(=O)([O-])OC[N+]2(CCCCOc3ccc4ccc(=O)[nH]c4c3)CCN(c3cccc4sccc34)CC2)n1 | 50
* O=c1ccc2ccc(OCCCC[N+]3(COP(=O)([O-])OC/C=C/CO)CCN(c4cccc5sccc45)CC3)cc2[nH]1 | 30

1: CC(C)(O)CCOP(=O)([O-])OC[N+]1(CCCCOc2ccc3ccc(=O)[nH]c3c2)CCN(c2cccc3sccc23)CC1
2: CC(C)(CC(=O)O)CC(=O)OCOP(=O)([O-])OC[N+]1(CCCCOc2ccc3ccc(=O)[nH]c3c2)CCN(c2cccc3sccc23)CC1
3: O=c1ccc2ccc(OCCCC[N+]3(COP(=O)([O-])OCCCCCCCCCO)CCN(c4cccc5sccc45)CC3)cc2[nH]1
4: CCCCCC(=O)OCOP(=O)([O-])OC[N+]1(CCCCOc2ccc3ccc(=O)[nH]c3c2)CCN(c2cccc3sccc23)CC1
5: COc1ccc(COC(=O)CC(C)(C)CC(=O)OCOP(=O)([O-])OC[N+]2(CCCCOc3ccc4ccc(=O)[nH]c4c3)CCN(c3cccc4sccc34)CC2)cc1
Request: Sort ascending by Concentration of evaluation compound decreased. Give me the labels in the order the question wants.
Response: 4, 3, 1, 2, 5
(4: 10 nM, 3: 40 nM, 1: 70 nM, 2: 100 nM, 5: 150 nM)

I: O=C(OCOP(=O)([O-])OC[N+]1(CCCCOc2ccc3ccc(=O)[nH]c3c2)CCN(c2cccc3sccc23)CC1)C12CC3CC(CC(C3)C1)C2
II: COCCOCOCCCCOP(=O)([O-])OC[N+]1(CCCCOc2ccc3ccc(=O)[nH]c3c2)CCN(c2cccc3sccc23)CC1
Request: Exercise: compare I and II ; which one has the greater Concentration of evaluation compound decreased? Identify your selection by its label.
Response: I
(I: 100 nM, II: 60 nM)

I: CC1(C)OCC(C(=O)OCOP(=O)([O-])OC[N+]2(CCCCOc3ccc4ccc(=O)[nH]c4c3)CCN(c3cccc4sccc34)CC2)CO1
II: CC(O)CCOP(=O)([O-])OC[N+]1(CCCCOc2ccc3ccc(=O)[nH]c3c2)CCN(c2cccc3sccc23)CC1 (stereo not shown)
Request: Sorting ascending by Concentration of evaluation compound decreased, which comes first: I or II ? Write down the label attached to your selection.
Response: II

A: CC(C)(C)C(=O)OP(=O)([O-])OC[N+]1(CCCCOc2ccc3ccc(=O)[nH]c3c2)CCN(c2cccc3sccc23)CC1
B: CCCCCCCC(=O)OC(C)OP(=O)([O-])OC[N+]1(CCCCOc2ccc3ccc(=O)[nH]c3c2)CCN(c2cccc3sccc23)CC1 (stereo not shown)
Request: Field: lower Concentration of evaluation compound decreased | Options: A / B Returns: label corresponding to the selected item.
Response: B
(B: 50 nM, A: 110 nM)
